Data origin: ChEMBL document CHEMBL1130294

Tgt: Calpain-1 catalytic subunit (Homo sapiens, UniProt P07384)
Sequence (P07384 whole entry): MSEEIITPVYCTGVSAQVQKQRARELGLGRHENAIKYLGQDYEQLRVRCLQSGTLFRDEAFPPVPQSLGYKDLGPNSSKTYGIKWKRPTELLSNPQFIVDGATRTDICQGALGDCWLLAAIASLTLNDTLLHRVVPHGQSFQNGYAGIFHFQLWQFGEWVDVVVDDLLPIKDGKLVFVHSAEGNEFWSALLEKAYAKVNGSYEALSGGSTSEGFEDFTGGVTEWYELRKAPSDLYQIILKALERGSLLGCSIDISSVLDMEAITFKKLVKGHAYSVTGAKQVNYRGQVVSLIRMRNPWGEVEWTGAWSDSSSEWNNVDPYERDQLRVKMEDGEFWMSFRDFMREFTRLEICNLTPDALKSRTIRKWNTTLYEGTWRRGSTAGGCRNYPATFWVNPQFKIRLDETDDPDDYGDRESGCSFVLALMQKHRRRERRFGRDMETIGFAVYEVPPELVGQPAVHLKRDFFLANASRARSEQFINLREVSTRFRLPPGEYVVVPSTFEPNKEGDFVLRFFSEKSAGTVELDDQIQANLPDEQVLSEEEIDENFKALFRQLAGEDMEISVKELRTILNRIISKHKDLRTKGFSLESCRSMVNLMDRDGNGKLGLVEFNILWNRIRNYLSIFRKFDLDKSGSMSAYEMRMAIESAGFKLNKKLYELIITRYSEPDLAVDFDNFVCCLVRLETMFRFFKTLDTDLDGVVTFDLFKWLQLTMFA
Assay name: Inhibitory activity evaluated against recombinant human calpain 1
pIC50: −log10 of the molar value. Residues, ends and D or L forms follow the SMILES beside them. *: point of attachment. Cbz = O=C(OCc1ccccc1)*; OtBu = CC(C)(C)O*
Class Y: pIC50 at least 8. Class N: pIC50 below 8.

| Molecule | Label value |
| --- | --- |
| CCCC[C@H](NC(=O)OCc1ccccc1)C(=O)N[C@H](C=O)CC(C)C | N |
| CC(C)C[C@@H](C=O)NC(=O)[C@H](CC(C)C)NC(=O)[C@H](CCCCN)NC(=O)OCc1ccccc1 (Cbz-Lys-Leu-Leu-aldehyde) | N |
| CC(=O)N[C@@H](CC(C)C)C(=O)N[C@@H](CC(C)C)C(=O)N[C@H](C=O)CCC(=O)OC(C)(C)C (Ac-Leu-Leu-Glu(OtBu)-aldehyde) | N |
| CC(C)C[C@@H](C=O)NC(=O)[C@H](C)NC(=O)[C@H](CC(C)C)NC(=O)OCc1ccccc1 (Cbz-Leu-Ala-Leu-aldehyde) | N |
| CCCC[C@@H](C=O)NC(=O)[C@H](CC(C)C)NC(=O)OCc1ccccc1 [CALPEPTIN] | Y |

Turning now to a further molecule:
Could you verify whether the entry `CC(=O)N[C@@H](CC(C)C)C(=O)N[C@@H](CC(C)C)C(=O)N[C@@H](C=O)CC(C)C` shows pIC50 of no less than 8? N
